Answer each item with its documented viability.
Test: growth inhibitors of H69AR lung tumor, primary screen, human, duplicate replicates (AID 580);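 note: 100% = mean luminescence of untreated wells and 0% = no signal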
Details: H69AR lung tumor cells viability, ATP luminescence, 72 h; at 10 µM; active compounds read low
Number only, in %; omit the unit.

For the compound shown here, COc1ccc(N2CCN(c3ccc(NC(=O)C4CCCCC4)cc3C#N)CC2)cc1 , give the reported viability.
93

Using the record for Cc1ccc2nc(NCCCN3CCOCC3)c(C=NCCCN3CCOCC3)c(=O)n2c1 , report its viability.
81.9

Find the recorded viability belonging to COc1ccc2c(=O)c3c(=O)n(Cc4ccco4)c(C(C)C)nc3oc2c1 and report it.
99.4

Item under review: Cn1c(SCc2nc3ccccc3c(=O)[nH]2)nnc1-c1ccco1 . Reported viability?
96

Can you share its viability? I mean this compound: O=C(Cn1c(=O)[nH]n(-c2ccccc2)c1=O)N1CCCc2ccccc21
93.7

Source listed as PubChem BioAssay.
